These data points were gathered from PubChem BioAssay AID2771.

Overview of reported IC50 across a group of molecules:
target: Signal transducer and activator of transcription 3 (Homo sapiens) (UniProt P40763); experiment: reduction of STAT3-responsive reporter signal – cell-based, luminescence, dose response, counter-screen for STAT1 inhibitor project, late-stage follow-up (AID 2771); details: STAT3-responsive luciferase reporter cells
The source made the active and inactive calls. The rule behind the calls is not given here.

Consider the worked cases shown below.
molecule | IC50
CC(C(=O)Nc1ccc(F)c(F)c1)N1CCN(S(=O)(=O)c2ccc(C(F)(F)F)cc2)CC1 (centres undefined) | > 18.6 µM (inactive)
CN(Cc1ccccc1N1CCCC1)C(=O)c1nn(-c2ccccc2)c(=O)c2ccccc12 | > 55.7 µM (inactive)

With those in mind, consider the next molecule.
Q) Answer with the recorded IC50 for the molecule listed here: COc1ccc(C)cc1NC(=O)C(c1ccccc1)N1CCN(S(=O)(=O)c2ccc(F)cc2)CC1 (centres undefined)
A) > 55.7 µM (inactive)
